# Measurement Target: SARS-CoV-2 spike protein receptor binding domain (RBD2) (SARS-CoV-2, UniProt P0DTC2 319-537)
# Protocol Text: SPR sandwich binning, ligand S01
Readout Label: normalized analyte binding to RBD2 held by the immobilized ligand
Numbers only.

Solved entries (count: 2):
H01 IgG1 (antibody, V domains shown, also called H1) VH: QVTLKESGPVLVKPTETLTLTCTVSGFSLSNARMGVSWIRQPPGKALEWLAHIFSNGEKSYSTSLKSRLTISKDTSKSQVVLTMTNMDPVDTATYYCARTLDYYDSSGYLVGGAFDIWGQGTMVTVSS VL: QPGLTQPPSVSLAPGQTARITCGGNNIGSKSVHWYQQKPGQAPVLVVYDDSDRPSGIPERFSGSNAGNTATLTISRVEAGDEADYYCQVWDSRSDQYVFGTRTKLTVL :: -0.11
E01 IgG1 (antibody, V domains shown, also called E1) VH: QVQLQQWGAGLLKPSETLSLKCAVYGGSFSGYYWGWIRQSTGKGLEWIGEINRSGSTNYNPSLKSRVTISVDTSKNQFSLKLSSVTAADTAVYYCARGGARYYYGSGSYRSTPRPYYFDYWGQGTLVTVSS VL: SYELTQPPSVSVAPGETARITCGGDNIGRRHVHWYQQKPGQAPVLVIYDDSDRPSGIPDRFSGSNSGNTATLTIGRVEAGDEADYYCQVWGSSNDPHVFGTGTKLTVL :: 0.03

// switching to the query binder
Query: Please report the recorded normalized analyte binding to RBD2 held by the immobilized ligand for B04 IgG1 (antibody, V domains shown) VH: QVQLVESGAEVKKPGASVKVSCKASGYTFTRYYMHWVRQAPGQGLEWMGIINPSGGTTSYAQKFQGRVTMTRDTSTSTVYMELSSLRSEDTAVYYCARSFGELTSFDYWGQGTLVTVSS VL: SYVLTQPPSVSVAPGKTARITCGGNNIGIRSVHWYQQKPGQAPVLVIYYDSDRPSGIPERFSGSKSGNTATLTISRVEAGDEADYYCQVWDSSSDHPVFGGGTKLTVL .
Result: -0.59
